Biological target: Human neutrophil elastase (Homo sapiens, UniProt P08246)
Assay: Human Neutrophil Elastase Assay
Conditions: Neutrophil Elastase assay; substrate MeOSuc-Ala-Ala-Pro-Val-AMC 250 μM; 15 min preincubation, 60 min incubation at room temperature; pH 7.5
Procedure: Human Neutrophil Elastase Assay All other materials were of the highest grade commercially available. […] Assay conditions: Test compounds were prediluted in DMSO and subsequently in compound buffer (5% DMSO final). […] After inactivation of the enzyme, fluorescence intensities were measured at 380 nm excitation and 460 nm emission wavelengths. […]
Each entry below lists one item and its recorded IC50 value.

-- ask Recall the recorded IC50 for Cc1nc(CNC(=O)c2cn(Cc3ccc(C#N)cc3)c(C)c(-c3cccc(C(F)(F)F)c3)c2=O)no1 with Human neutrophil elastase (Homo sapiens, UniProt P08246) and state it.
-- reply 13.3 nM

-- ask Param item: Cc1c(-c2cccc(C(F)(F)F)c2)c(=O)c(C(=O)NCCCO)cn1C(C)c1ccc(C#N)cc1 (stereo not shown)
-- reply 1.8 nM

-- ask Param item: Cc1c(-c2cccc(C(F)(F)F)c2)c(=O)c(C(=O)N[C@H]2CCC(=O)NC2)cn1Cc1ccc(C#N)cc1
-- reply 9 nM

-- ask Param item: Cc1c(-c2cccc(C(F)(F)F)c2)c(=O)c(C(=O)NC2COC2)cn1C(C)c1ccc(C#N)cc1 (stereo not shown)
-- reply 4.1 nM

====

Molecular target: Human neutrophil elastase (Homo sapiens, UniProt P08246)
Assay: Human Neutrophil Elastase Assay
Conditions: Neutrophil Elastase assay; substrate MeOSuc-Ala-Ala-Pro-Val-AMC 250 μM; 15 min preincubation, 60 min incubation at room temperature; pH 7.5
pIC50: −log10 of the molar value.
PARAMETER_MEASURED: pIC50

Would you please look over these solved cases?
# MOLECULE, PARAMETER_MEASURED, VAL
records = [
    ("Cc1c(-c2cccc(C(F)F)c2)c(=O)c(C(=O)NCc2ccc(S(C)(=O)=O)cc2)cn1Cc1ccc(C#N)cn1 [Example 40]", "pIC50", "> 9.00"),
    ("Cc1c(-c2cccc(C(F)(F)F)c2)c(=O)c(C(=O)NCC#N)cn1C(C)c1ccc(C#N)cc1 (stereo not drawn) [Example 7.18]", "pIC50", "> 9.00"),
]

Next, consider the following molecule.
-- ask Recall the recorded pIC50 for CCNC(=O)c1cn(C(C)c2ccc(C#N)cc2)c(C)c(-c2cccc(C(F)(F)F)c2)c1=O (single isomer, unassigned) [Example 10A] with Human neutrophil elastase (Homo sapiens, UniProt P08246) and state it.
-- reply > 9.00

====

Target: Human neutrophil elastase (Homo sapiens)
Sequence (P08246 30-267): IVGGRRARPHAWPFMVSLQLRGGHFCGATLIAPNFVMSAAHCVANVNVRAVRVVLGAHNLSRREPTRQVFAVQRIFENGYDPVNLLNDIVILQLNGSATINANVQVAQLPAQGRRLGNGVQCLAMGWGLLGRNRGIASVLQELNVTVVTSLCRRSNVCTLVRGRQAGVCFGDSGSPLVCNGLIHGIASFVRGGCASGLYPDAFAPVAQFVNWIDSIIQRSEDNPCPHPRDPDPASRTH
Assay: Human Neutrophil Elastase Assay
Conditions: Neutrophil Elastase assay; substrate MeOSuc-Ala-Ala-Pro-Val-AMC 250 μM; 15 min preincubation, 60 min incubation at room temperature; pH 7.5
Protocol: Human Neutrophil Elastase Assay All other materials were of the highest grade commercially available. […] Assay conditions: Test compounds were prediluted in DMSO and subsequently in compound buffer (5% DMSO final). […] After inactivation of the enzyme, fluorescence intensities were measured at 380 nm excitation and 460 nm emission wavelengths. […]
PARAMETER_MEASURED: IC50 (nM)
The response must be a number in nM with no trailing unit.

Would you please look over these solved cases?
# COMPOUND, UNITS_OF_MEASURE, VAL
records = [
    ("Cc1c(-c2cccc(C(F)(F)F)c2)c(=O)c(C(=O)NCC#N)cn1Cc1ccc(C#N)cc1", "nM", 2.3),
    ("Cc1c(-c2ccnc(C(F)(F)F)c2)c(=O)c(C(=O)NCC2CC(O)C2)cn1C(C)c1ccc(C#N)cc1 (stereo not drawn) [Example 9.47]", "nM", 14.9),
]

Next, consider the following compound.
-- ask Recall the recorded IC50 for COCCNC(=O)c1cn(C(C)c2ccc(C#N)cc2)c(C)c(-c2ccnc(C(F)(F)F)c2)c1=O (stereo not drawn) with Human neutrophil elastase (Homo sapiens) and state it.
-- reply 5.2

====

Molecular target: Human neutrophil elastase (Homo sapiens, UniProt P08246)
Assay: Human Neutrophil Elastase Assay
Details: Neutrophil Elastase assay; substrate MeOSuc-Ala-Ala-Pro-Val-AMC 250 μM; 15 min preincubation, 60 min incubation at room temperature; pH 7.5
pIC50: −log10 of the molar value.
Answer F if pIC50 is under 8, and T if it is 8 or more.

# COMPOUND, CLASS_NAME
data = [
    ("Cc1c(-c2ccnc(C(F)(F)F)c2)c(=O)c(C(=O)NCC2COC2)cn1C(C)c1ccc(C#N)cc1 (stereo not drawn)", "T"),
    ("COc1cc(C#N)ccc1Cn1cc(C(=O)NCc2ccc(S(C)(=O)=O)cn2)c(=O)c(-c2cccc(C(F)(F)F)c2)c1C", "T"),
    ("Cc1c(-c2cccc(C(F)F)c2)c(=O)c(C(=O)NCc2ccncc2)cn1C(C)c1ccc(C#N)cc1 (stereo not drawn)", "T"),
    ("CCC(c1ccc(C#N)cc1)n1cc(C(=O)NC)c(=O)c(-c2ccnc(C(F)(F)F)c2)c1C (stereo not drawn)", "F"),
    ("Cc1nnc(CNC(=O)c2cn(C(C)c3ccc(C#N)cc3)c(C)c(-c3cccc(C(F)F)c3)c2=O)o1 (stereo not drawn)", "T"),
]

-- ask Answer whether pIC50 of Cc1noc(CNC(=O)c2cn(Cc3ccc(C#N)cc3S(C)(=O)=O)c(C)c(-c3cccc(C(F)(F)F)c3)c2=O)n1 is greater than or equal to 8.
-- reply T

-- ask Param item: COCC(C)(C#N)NC(=O)c1cn(C(C)c2ccc(C#N)cc2)c(C)c(-c2ccnc(C(F)(F)F)c2)c1=O (stereo not drawn)
-- reply F

-- ask Param item: Cc1c(-c2cccc(C(F)(F)F)c2)c(=O)c(C(=O)NCCCO)cn1Cc1ccc(C#N)cc1S(C)(=O)=O
-- reply T

====

Target: Human neutrophil elastase (Homo sapiens)
Assay: Human Neutrophil Elastase Assay
Conditions: Neutrophil Elastase assay; substrate MeOSuc-Ala-Ala-Pro-Val-AMC 250 μM; 15 min preincubation, 60 min incubation at room temperature; pH 7.5
Note to self: class labels come from recorded IC50, ranges listed here: band 1: < 6 nM; band 2: ≥ 6 nM and < 10 nM; band 3: ≥ 10 nM

# MOLECULE, CLASS_NAME
rows = [
    ("Cc1c(-c2cccc(C(F)(F)F)c2)c(=O)c(C(=O)NCCN2CCOCC2)cn1Cc1ccc(C#N)cc1 [Example 1.49]", "band 3"),
    ("Cc1c(-c2cccc(C(F)(F)F)c2)c(=O)c(C(=O)NCCS(C)(=O)=O)cn1Cc1ccc(C#N)cc1 [Example 1.66]", "band 2"),
]

-- ask Lab note: which band did CNC(=O)c1cn(Cc2ccc(C#N)cc2S(=O)(=O)C2CC2)c(C)c(-c2cccc(C(F)(F)F)c2)c1=O [Example 27] land in?
-- reply band 2

-- ask Param item: CCCNC(=O)c1cn(C(C)c2ccc(C#N)cc2)c(C)c(-c2cccc(C(F)F)c2)c1=O (stereo not shown) [Example 8.27]
-- reply band 1

-- ask Param item: CNC(=O)c1cn(Cc2ccc(C#N)c(F)c2)c(C)c(-c2cccc(C(F)F)c2)c1=O [Example 33]
-- reply band 3

====

Target: Human neutrophil elastase (Homo sapiens, UniProt P08246)
Test: Human Neutrophil Elastase Assay
Details: Neutrophil Elastase assay; substrate MeOSuc-Ala-Ala-Pro-Val-AMC 250 μM; 15 min preincubation, 60 min incubation at room temperature; pH 7.5
PARAMETER_MEASURED: IC50 (nM)
The response must be a number in nM with no trailing unit.

-- ask Recall the recorded IC50 for CCNC(=O)c1cn(C(C)c2ccc(C#N)cc2)c(C)c(-c2ccnc(C(F)(F)F)c2)c1=O (centres unmarked) [Example 9.56] with Human neutrophil elastase (Homo sapiens, UniProt P08246) and state it.
-- reply 6.1

====

Each entry below lists one item and its recorded log10 IC50 value.
Biological target: Human neutrophil elastase (Homo sapiens, UniProt P08246)
Sequence (P08246 30-267): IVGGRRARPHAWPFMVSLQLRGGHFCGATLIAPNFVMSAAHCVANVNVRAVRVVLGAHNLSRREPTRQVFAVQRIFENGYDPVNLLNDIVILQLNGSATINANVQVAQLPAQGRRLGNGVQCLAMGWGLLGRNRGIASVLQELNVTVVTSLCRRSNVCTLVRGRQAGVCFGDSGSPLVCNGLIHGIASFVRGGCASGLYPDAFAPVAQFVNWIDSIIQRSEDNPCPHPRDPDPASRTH
Experiment: Human Neutrophil Elastase Assay
Details: Neutrophil Elastase assay; substrate MeOSuc-Ala-Ala-Pro-Val-AMC 250 μM; 15 min preincubation, 60 min incubation at room temperature; pH 7.5
For clarity, the numbers are log10 values of IC50 expressed in nM.

Would you please look over these solved cases?
# COMPOUND, VAL
records = [
    ("Cc1noc(CNC(=O)c2cn(Cc3ccc(C#N)cc3)c(C)c(-c3cccc(C(F)(F)F)c3)c2=O)n1 [Example 1.67]", 0.81),
    ("Cc1nnc(CNC(=O)c2cn(Cc3ccc(C#N)cc3S(C)(=O)=O)c(C)c(-c3cccc(C(F)(F)F)c3)c2=O)o1 [Example 22]", 0.45),
    ("Cc1c(-c2cccc(C(F)(F)F)c2)c(=O)c(C(=O)NCc2ccc(S(C)(=O)=O)cn2)cn1Cc1cccc(C#N)c1 [Example 4.4]", 1.80),
    ("Cc1c(-c2cccc(C(F)(F)F)c2)c(=O)c(C(=O)NCc2ccccn2)cn1Cc1ccc(C#N)cc1 [Example 1.48]", 0.61),
]

-- ask Data request, read-out log10 IC50, for Cc1c(-c2cccc(C(F)(F)F)c2)c(=O)c(C(=O)NCCCCO)cn1Cc1ccc(C#N)cc1 [Example 1.20]
-- reply 1.03

-- ask Param item: CNC(=O)c1cn(C(C)c2ccc(C#N)cn2)c(C)c(-c2cccc(C(F)F)c2)c1=O (single isomer, unassigned) [Example 16A]
-- reply 0.62

-- ask Param item: CNC(=O)c1cn(C(C)c2ccc(C#N)cc2)c(C)c(-c2ccc(F)c(C(F)F)c2)c1=O (stereo not shown) [Example 28]
-- reply 1.12

Every entry's value here was drawn from patent USRE46630E1.
